Target: T1, Caspase-2 (UniProt P42575)
T1 sequence (looked up): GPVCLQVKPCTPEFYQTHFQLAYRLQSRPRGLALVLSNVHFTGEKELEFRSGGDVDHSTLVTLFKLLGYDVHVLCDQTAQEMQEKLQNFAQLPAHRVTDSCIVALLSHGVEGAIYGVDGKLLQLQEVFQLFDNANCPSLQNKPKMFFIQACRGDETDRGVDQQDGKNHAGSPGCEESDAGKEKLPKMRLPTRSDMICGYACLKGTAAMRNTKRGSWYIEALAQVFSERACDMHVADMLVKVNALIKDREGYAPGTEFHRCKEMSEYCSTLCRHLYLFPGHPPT
Assay: cell-based or functional assay
Numbered stars: 1 amine (or outer) side, 2 acyl side, 3 side chain; on linkers, the order of the positions; unused ones are H or OH. Square brackets hold non-standard residues; d marks the D form. * marks the point of attachment. CH═CH‑CON(CH2Ph)2 = O=C(/C=C/*)N(Cc1ccccc1)Cc1ccccc1; CH═CH‑CON(CH3)CH2CH2Ph = CN(CCc1ccccc1)C(=O)/C=C/*; AAsp = aza-Asp, O=C(N(CC(=O)[*:3])N[*:1])[*:2]; CH═CH‑COOCH2Ph = O=C(/C=C/*)OCc1ccccc1; CH═CH‑COOEt = CCOC(=O)/C=C/*; Cbz = O=C(OCc1ccccc1)*
ENDPOINT: k2 (M⁻¹ s⁻¹)

Check out these entries, answers already filled in.
- BINDER: "Cbz-IET[AAsp]-{CH═CH‑CON(CH2Ph)2} (SMILES CC[C@H](C)[C@H](NC(=O)OCc1ccccc1)C(=O)N[C@@H](CCC(=O)O)C(=O)N[C@H](C(=O)NN(CC(=O)O)C(=O)/C=C/C(=O)N(Cc1ccccc1)Cc1ccccc1)[C@@H](C)O) [Cbz-Ile-Glu-Thr-AAsp-CH═CH-CON(CH2Ph)2]"
  k2, M⁻¹ s⁻¹: 76
- BINDER: "Cbz-IET[AAsp]-{CH═CH‑CONHCH2Ph} [Cbz-Ile-Glu-Thr-AAsp-CH═CH-CONHCH2Ph]"
  k2, M⁻¹ s⁻¹: 15
- BINDER: "Cbz-IET[AAsp]-{CH═CH‑CON(CH3)CH2CH2Ph} (SMILES CC[C@H](C)[C@H](NC(=O)OCc1ccccc1)C(=O)N[C@@H](CCC(=O)O)C(=O)N[C@H](C(=O)NN(CC(=O)O)C(=O)/C=C/C(=O)N(C)CCc1ccccc1)[C@@H](C)O) [Cbz-Ile-Glu-Thr-AAsp-CH═CH-CON(CH3)CH2CH2Ph]"
  k2, M⁻¹ s⁻¹: 38

[1] Cbz-IET[AAsp]-{CH═CH‑COOEt} (SMILES CCOC(=O)/C=C/C(=O)N(CC(=O)O)NC(=O)[C@@H](NC(=O)[C@H](CCC(=O)O)NC(=O)[C@@H](NC(=O)OCc1ccccc1)[C@@H](C)CC)[C@@H](C)O) [Cbz-Ile-Glu-Thr-AAsp-CH═CH-COOEt]
[2] Cbz-IET[AAsp]-{CH═CH‑COOCH2Ph} (SMILES CC[C@H](C)[C@H](NC(=O)OCc1ccccc1)C(=O)N[C@@H](CCC(=O)O)C(=O)N[C@H](C(=O)NN(CC(=O)O)C(=O)/C=C/C(=O)OCc1ccccc1)[C@@H](C)O) [Cbz-Ile-Glu-Thr-AAsp-CH═CH-COOCH2Ph]
Hey, between 1 and 2 which has a smaller measured k2? Indicate which entry you chose by stating its label. 2
(2: 110 M⁻¹ s⁻¹, 1: 300 M⁻¹ s⁻¹)
